- tested system: human F508del-CFTR (Homo sapiens, UniProt P13569, DEL508-508)
- Sequence (P13569 with tags, fused parts or gaps DEL508-508): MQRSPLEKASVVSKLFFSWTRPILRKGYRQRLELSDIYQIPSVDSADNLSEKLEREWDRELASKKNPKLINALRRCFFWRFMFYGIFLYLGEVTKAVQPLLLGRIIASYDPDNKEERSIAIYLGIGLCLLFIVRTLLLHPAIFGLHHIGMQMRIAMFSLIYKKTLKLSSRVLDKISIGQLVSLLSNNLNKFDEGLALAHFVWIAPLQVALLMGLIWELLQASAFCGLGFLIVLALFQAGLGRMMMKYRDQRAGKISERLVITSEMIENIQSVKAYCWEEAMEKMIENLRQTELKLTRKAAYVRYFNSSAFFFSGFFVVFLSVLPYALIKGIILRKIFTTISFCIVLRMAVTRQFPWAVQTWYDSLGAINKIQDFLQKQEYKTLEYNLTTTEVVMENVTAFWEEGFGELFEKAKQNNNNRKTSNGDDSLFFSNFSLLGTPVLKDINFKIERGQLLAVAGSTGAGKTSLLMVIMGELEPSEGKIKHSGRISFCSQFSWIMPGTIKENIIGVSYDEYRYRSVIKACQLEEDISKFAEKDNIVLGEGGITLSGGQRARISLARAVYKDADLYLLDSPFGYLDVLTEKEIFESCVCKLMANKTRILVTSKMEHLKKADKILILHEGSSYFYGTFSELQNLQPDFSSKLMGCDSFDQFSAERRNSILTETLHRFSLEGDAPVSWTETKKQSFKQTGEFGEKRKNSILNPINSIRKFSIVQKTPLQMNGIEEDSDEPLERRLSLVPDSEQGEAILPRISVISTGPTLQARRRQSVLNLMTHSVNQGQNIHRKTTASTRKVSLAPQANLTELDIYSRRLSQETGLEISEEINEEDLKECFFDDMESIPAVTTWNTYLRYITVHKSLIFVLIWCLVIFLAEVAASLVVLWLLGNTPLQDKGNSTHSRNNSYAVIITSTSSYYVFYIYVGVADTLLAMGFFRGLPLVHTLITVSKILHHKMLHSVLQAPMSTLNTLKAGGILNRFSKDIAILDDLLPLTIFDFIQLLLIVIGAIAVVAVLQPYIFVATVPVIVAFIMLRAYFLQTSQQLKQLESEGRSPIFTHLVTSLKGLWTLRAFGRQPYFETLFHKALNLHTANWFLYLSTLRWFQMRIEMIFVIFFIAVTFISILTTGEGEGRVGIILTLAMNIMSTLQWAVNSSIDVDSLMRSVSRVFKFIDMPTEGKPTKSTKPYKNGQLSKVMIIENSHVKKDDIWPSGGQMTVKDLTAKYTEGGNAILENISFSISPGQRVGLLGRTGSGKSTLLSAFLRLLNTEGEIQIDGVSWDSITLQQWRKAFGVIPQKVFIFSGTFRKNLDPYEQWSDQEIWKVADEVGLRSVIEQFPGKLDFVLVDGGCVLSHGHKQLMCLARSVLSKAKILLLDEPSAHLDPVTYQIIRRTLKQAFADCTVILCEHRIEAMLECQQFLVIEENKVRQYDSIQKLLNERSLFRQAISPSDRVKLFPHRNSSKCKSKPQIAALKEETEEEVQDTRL
- assay explanation: F508del-CFTR cell surface expression (corrector activity), DiscoveRx ß-galactosidase complementation chemiluminescence assay in recombinant U2OS cell line
- condition context: EC50, F508del-CFTR cell surface expression, U2OS cell line, 16h compound incubation; geomean values
Below, each entry is listed alongside its reported EC50.
measurement kind: EC50

[
  {
    "molecule": "COc1cccc(CCNC(=O)[C@@H]2CC(=O)N(C)[C@@H](CC(C)C)C(=O)N3CCN(C(=O)OCC(Cl)(Cl)Cl)C[C@@H]3C(=O)N[C@H](Cc3ccccc3)COc3ccc4ccccc4c3C(=O)N2)c1",
    "measurement kind": "EC50",
    "result": "107 nM"
  },
  {
    "molecule": "CC(C)C[C@H]1C(=O)N2CCOC[C@@H]2C(=O)N[C@H](Cc2ccccc2)COc2ccc3ccccc3c2C(=O)N[C@H](C(=O)NCCc2cccc(-n3nccn3)c2)CC(=O)N1C",
    "measurement kind": "EC50",
    "result": "280 nM"
  },
  {
    "molecule": "COc1cccc(CCNC(=O)[C@@H]2CC(=O)N(C)[C@@H](CC(C)C)C(=O)N(CCC3CCCCC3)CC(=O)N[C@H](Cc3ccccc3)COc3cccc(C)c3C(=O)N2)c1",
    "measurement kind": "EC50",
    "result": "146 nM"
  },
  {
    "molecule": "CC(C)C[C@H]1C(=O)N2CCOC[C@@H]2C(=O)N[C@H](Cc2ccccc2)COc2cnc3ccccc3c2C(=O)N[C@H](C(=O)NCCc2ccccc2F)CC(=O)N1C",
    "measurement kind": "EC50",
    "result": "558 nM"
  },
  {
    "molecule": "CN1C(=O)C[C@@H](C(=O)NCCc2ccc3c(c2)OCO3)NC(=O)c2c(ccc3ccccc23)OC[C@@H](Cc2ccccc2)NC(=O)CN(C[C@@H]2CCCCO2)C(=O)[C@@H]1CC1CCCC1 (mixture of isomers)",
    "measurement kind": "EC50",
    "result": "337 nM"
  }
]

----------
- tested system: human F508del-CFTR (Homo sapiens, UniProt P13569, DEL508-508)
- assay explanation: F508del-CFTR cell surface expression (corrector activity), DiscoveRx ß-galactosidase complementation chemiluminescence assay in recombinant U2OS cell line
- condition context: EC50, F508del-CFTR cell surface expression, U2OS cell line, 16h compound incubation; geomean values
pEC50: −log10 of the molar value.

[
  {
    "molecule": "COc1cccc(CCNC(=O)[C@@H]2CC(=O)N(C)[C@@H](CC3CCCCC3)C(=O)N(C[C@H]3CCCCO3)CC(=O)N[C@H](Cc3ccccc3)COc3ccc4ccccc4c3C(=O)N2)c1 (mixture of isomers) [Example 296]",
    "pEC50": 6.80
  },
  {
    "molecule": "COc1cccc(OCCNC(=O)[C@@H]2CC(=O)N(C)[C@@H](CC(C)C)C(=O)N3CCOC[C@@H]3C(=O)N[C@H](Cc3ccccc3)COc3ccc4ccccc4c3C(=O)N2)c1 [Example 33]",
    "pEC50": 6.59
  },
  {
    "molecule": "C#CC[C@H]1C(=O)N(CCC2CCCCC2)CC(=O)N[C@H](Cc2ccccc2)COc2ccc3ccccc3c2C(=O)N[C@H](C(=O)NCCc2ccc3c(c2)OCO3)CC(=O)N1C [Example 339]",
    "pEC50": 6.71
  },
  {
    "molecule": "CC(C)C[C@H]1C(=O)N2CCOC[C@@H]2C(=O)N[C@H](Cc2ccccc2)COc2cnc3ccccc3c2C(=O)N[C@H](C(=O)NCCc2ccc(-n3nccn3)cc2)CC(=O)N1C [Example 55]",
    "pEC50": 6.02
  },
  {
    "molecule": "CC(C)C[C@H]1C(=O)N(CCCOCc2ccccc2)CC(=O)N[C@H](Cc2ccccc2)COc2cc3c(cc2C(=O)N[C@H](C(=O)NCCc2ccc4c(c2)OCO4)CC(=O)N1C)OCO3 (racemic) [Example 6]",
    "pEC50": 6.38
  },
  {
    "molecule": "CCOc1cccc2c1C(=O)N[C@H](C(=O)NCCc1cccc(OC)c1)CC(=O)N(C)[C@@H](CC(C)C)C(=O)N1CCCC[C@@H]1C(=O)N[C@H](Cc1ccccc1)CO2 [Example 280]",
    "pEC50": 6.53
  },
  {
    "molecule": "CC(C)C[C@H]1C(=O)N(C)C2(CC2)C(=O)N[C@H](Cc2ccccc2)COc2cnc3ccccc3c2C(=O)N[C@H](C(=O)NCCc2nc(C3CC3)no2)CC(=O)N1C [Example 121]",
    "pEC50": 6.21
  },
  {
    "molecule": "COc1cccc(CCNC(=O)[C@@H]2CC(=O)N(C)[C@@H](CC(C)C)C(=O)N(C)CC(=O)N[C@H](Cc3ccccc3)COc3nc(C)sc3C(=O)N2)c1 [Example 241]",
    "pEC50": 5.78
  },
  {
    "molecule": "COc1cccc(CCNC(=O)[C@@H]2CC(=O)N(C)[C@@H](CC(C)C)C(=O)N(C[C@H]3CCCCO3)CC(=O)N[C@H](Cc3ccccc3)COc3ccc4ccccc4c3C(=O)N2)c1 (mixture of isomers) [Example 164]",
    "pEC50": 6.28
  },
  {
    "molecule": "COCCN1CCN2C(=O)[C@H](CC(C)C)N(C)C(=O)C[C@@H](C(=O)NCCc3cccc(OC)c3)NC(=O)c3c(ccc4ccccc34)OC[C@@H](Cc3ccccc3)NC(=O)[C@H]2C1 [Example 354]",
    "pEC50": 6.64
  }
]

----------
- tested system: human F508del-CFTR (Homo sapiens, UniProt P13569, DEL508-508)
- assay explanation: F508del-CFTR cell surface expression (corrector activity), DiscoveRx ß-galactosidase complementation chemiluminescence assay in recombinant U2OS cell line;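 further: U2OS cells co-expressing ProLink-tagged F508del-CFTR and a membrane-anchored enzyme acceptor, where more surface CFTR restores β-galactosidase activity measured by chemiluminescence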
- condition context: U2OS, in relation to the Emax of the corrector lumacaftor (=100%); U2OS cell line, 16h compound incubation; arithmetic mean values

[
  {
    "compound": "COc1nccc2c1C(=O)N[C@H](C(=O)NCCc1ccc(Br)cc1)CC(=O)N(C)[C@@H](CC(C)C)C(=O)N1CCCC[C@@H]1C(=O)N[C@H](Cc1ccccc1)CO2 [Example 184]",
    "Emax": "205%"
  },
  {
    "compound": "CC(C)C[C@H]1C(=O)N(C)C2(CC2)C(=O)N[C@H](Cc2ccccc2)COc2cnc3ccc(F)cc3c2C(=O)N[C@H](C(=O)NCCc2cccc(-n3nccn3)c2)CC(=O)N1C [Example 136]",
    "Emax": "271%"
  },
  {
    "compound": "Cc1ccc(CCNC(=O)[C@@H]2CC(=O)N(C)[C@@H](CC(C)C)C(=O)N3CCOC[C@@H]3C(=O)N[C@H](Cc3ccccc3)COc3cnc4ccccc4c3C(=O)N2)c(C)c1 [Example 63]",
    "Emax": "250%"
  },
  {
    "compound": "CCc1nc(CCNC(=O)[C@@H]2CC(=O)N(C)[C@@H](CC(C)C)C(=O)N(C)C3(CC3)C(=O)N[C@H](Cc3ccccc3)COc3cnc4ccccc4c3C(=O)N2)no1 [Example 114]",
    "Emax": "220%"
  },
  {
    "compound": "Cc1noc(CCNC(=O)[C@@H]2CC(=O)N(C)[C@@H](CC(C)C)C(=O)N(C)C3(CC3)C(=O)N[C@H](Cc3ccccc3)COc3cnc4ccc(F)cc4c3C(=O)N2)n1 [Example 146]",
    "Emax": "318%"
  },
  {
    "compound": "CCOc1cccc(CCNC(=O)[C@@H]2CC(=O)N(C)[C@@H](CC(C)C)C(=O)N3CCOC[C@@H]3C(=O)N[C@H](Cc3ccccc3)COc3ccc4ccccc4c3C(=O)N2)c1 [Example 397]",
    "Emax": "207%"
  },
  {
    "compound": "CC(C)C[C@H]1C(=O)N2CCOC[C@@H]2C(=O)N[C@H](Cc2ccccc2)COc2ccc3ccccc3c2C(=O)N[C@H](C(=O)NCCc2ccc3c(c2)OCO3)CC(=O)N1C [Example 326]",
    "Emax": "273%"
  },
  {
    "compound": "COc1cccc(CCNC(=O)[C@@H]2CC(=O)N(C)[C@@H](CC(C)C)C(=O)N3CCN(CC(C)C)C[C@H]3C(=O)N[C@H](Cc3ccccc3)COc3cnc4ccccc4c3C(=O)N2)c1 [Example 373]",
    "Emax": "149%"
  },
  {
    "compound": "CC(C)C[C@H]1C(=O)N(C)C2(CC2)C(=O)N[C@H](Cc2ccccc2)COc2cnc3ccc(F)cc3c2C(=O)N[C@H](C(=O)NCCn2cc(Br)cn2)CC(=O)N1C [Example 173]",
    "Emax": "212%"
  },
  {
    "compound": "COc1cccc(CCNC(=O)[C@@H]2CC(=O)N(C)[C@@H](CC(C)C)C(=O)N3CCCC[C@@H]3C(=O)N[C@H](Cc3ccccc3)COc3ccc4ncoc4c3C(=O)N2)c1 [Example 343]",
    "Emax": "270%"
  },
  {
    "compound": "COc1cccc2c1C(=O)N[C@H](C(=O)NCCc1ccc3c(c1)OCO3)CC(=O)N(C)[C@@H](CC(C)C)C(=O)N(C[C@@H]1CCCCO1)CC(=O)N[C@H](Cc1ccccc1)CO2 [Example 306]",
    "Emax": "139%"
  },
  {
    "compound": "COc1cccc(CCNC(=O)[C@@H]2CC(=O)N(C)[C@@H](CC(C)C)C(=O)N(CCC3CCCCC3)CC(=O)N[C@H](Cc3ccccc3)COc3cc4ccccc4cc3C(=O)N2)c1 [Example 251]",
    "Emax": "159%"
  },
  {
    "compound": "COc1cccc(CCNC(=O)[C@@H]2CC(=O)N(C)[C@@H](C)C(=O)N(CCC3CCCCC3)CC(=O)N[C@H](Cc3ccccc3)COc3cc(OC)cc(OC)c3C(=O)N2)c1 [Example 273]",
    "Emax": "169%"
  },
  {
    "compound": "CN1C(=O)C[C@@H](C(=O)NCCc2ccc3c(c2)OCO3)NC(=O)c2c(ccc3ccccc23)OC[C@@H](Cc2ccccc2)NC(=O)CN(C[C@@H]2CCCCO2)C(=O)[C@@H]1CC1CCCC1 (racemic) [Example 284]",
    "Emax": "136%"
  },
  {
    "compound": "CC(C)C[C@H]1C(=O)N(C)C2(CC2)C(=O)N[C@H](Cc2ccccc2)COc2cnc3ccccc3c2C(=O)N[C@H](C(=O)NCCc2cc(C(C)(C)C)on2)CC(=O)N1C [Example 119]",
    "Emax": "248%"
  },
  {
    "compound": "CC(C)C[C@H]1C(=O)N(C)C2(CC2)C(=O)N[C@H](Cc2ccccc2)COc2cnc3ccccc3c2C(=O)N[C@H](C(=O)NCCc2cc(F)cc(F)c2)CC(=O)N1C [Example 120]",
    "Emax": "212%"
  },
  {
    "compound": "COc1cccc(CCNC(=O)[C@@H]2CC(=O)N(C)[C@@H](CC(C)C)C(=O)N(C)CC(=O)N[C@H](Cc3ccccc3)COc3nc(C)sc3C(=O)N2)c1 [Example 241]",
    "Emax": "92%"
  },
  {
    "compound": "CC(C)C[C@H]1C(=O)N(C)CC(=O)N[C@H](Cc2ccccc2)COc2cnc3c(F)cccc3c2C(=O)N[C@H](C(=O)NCCc2ccc3c(c2)OCO3)CC(=O)N1C [Example 349]",
    "Emax": "258%"
  },
  {
    "compound": "COc1cc(CCNC(=O)[C@@H]2CC(=O)N(C)[C@@H](CC(C)C)C(=O)N3CCCC[C@@H]3C(=O)N[C@H](Cc3ccccc3)COc3cnc4ccccc4c3C(=O)N2)cc(OC)c1 [Example 71]",
    "Emax": "326%"
  },
  {
    "compound": "CN1C(=O)C[C@@H](C(=O)NCCc2ccc3c(c2)OCO3)NC(=O)c2c(ccc3ccccc23)OC[C@@H](Cc2ccccc2)NC(=O)CN(CC[C@H]2CCCCO2)C(=O)[C@@H]1CC1CCCC1 (racemic) [Example 288]",
    "Emax": "175%"
  }
]
